All figures here come from ChEMBL document CHEMBL5550103.

experiment notes: Cytotoxicity against HUVECs assessed as reduction in cell viability at 5 uM incubated for 48 hrs by CCK-8 method relative to control
Type: toxicity, cell-based
assay context: human, HUVEC cells, values are per cent of control
Documented viability, % of control at 48 h, 5 µM across a set of compounds
Kindly provide the numeric value in % only, without the unit symbol.

compound	viability, % of control at 48 h, 5 µM / %
CN(C)CCN(CCN(C)C)c1ccnc(CN2CCN(c3ccc(C(F)(F)F)cc3)CC2)c1	104

Lookup: Return viability, % of control at 48 h, 5 µM (reported value) for this compound: Cc1ccc(N2CCN(Cc3cc(N4CCCN5CCCC5C4)ccn3)CC2)cc1 (stereo unspecified)
Found: 100

Lookup: Return viability, % of control at 48 h, 5 µM (reported value) for this compound: "Cc1ccc(N2CCN(Cc3cc(N(C)CCN(C)C)ccc3C(F)(F)F)CC2)cc1"
Found: 103

Lookup: Return viability, % of control at 48 h, 5 µM (reported value) for this compound: "CN(C)CCN(C)c1ccc(C(F)(F)F)c(CN2CCN(c3ccncc3)CC2)c1"
Found: 107

Lookup: Return viability, % of control at 48 h, 5 µM (reported value) for this compound: "Cc1ccc(N2CCN(Cc3cc(N4CCCN(C)CC4)ccn3)CC2)cc1"
Found: 105

Lookup: Return viability, % of control at 48 h, 5 µM (reported value) for this compound: "Cc1ccc(N2CCN(Cc3cc(N(C)CCN(C)C)ccn3)CC2)cc1"
Found: 101

Lookup: Return viability, % of control at 48 h, 5 µM (reported value) for this compound: "Cc1ccc(N2CCN(Cc3cc(N4CCCN(C)CC4)ccc3C(F)(F)F)CC2)cc1"
Found: 105

Lookup: Return viability, % of control at 48 h, 5 µM (reported value) for this compound: "CN(C)CCN(C)c1ccnc(CN2CCN(c3ccc(C(F)(F)F)cc3)CC2)c1"
Found: 103

Lookup: Return viability, % of control at 48 h, 5 µM (reported value) for this compound: "Cc1ccc(N2CCN(Cc3cc(N4CCC5(CCN(C)CC5)C4)ccn3)CC2)cc1"
Found: 100

Lookup: Return viability, % of control at 48 h, 5 µM (reported value) for this compound: "Cc1ccc(N2CCN(Cc3cc(N(C)CCN(C)CCN(C)C)ccc3C(F)(F)F)CC2)cc1"
Found: 98

Lookup: Return viability, % of control at 48 h, 5 µM (reported value) for this compound: Clc1ccc(N2CCN(Cc3cc(N4CCC5(CCCN5Cc5ccccc5)C4)ccn3)CC2)cc1 (stereo unspecified)
Found: 91

* * *

Documented log10 CC50 at 48 h across a set of molecules
experiment notes: Cytotoxicity against HUVECs assessed as reduction in cell viability incubated for 48 hrs by CCK-8 method
Format: toxicity, cell-based
assay context: human, HUVEC cells
The common logarithm of CC50 at 48 h in µM is what is listed.

Worked set:
compound	log10 CC50 at 48 h
Clc1ccc(N2CCN(Cc3cc(N4CCC5(CCN(Cc6ccccc6)CC5)C4)ccn3)CC2)cc1	1.32
CN1CCC2(CC1)CCN(c1ccnc(CN3CCN(c4ccc(Cl)cc4)CC3)c1)C2	1.50
CN1CCCN(c2ccc(C(F)(F)F)c(CN3CCN(c4ccc(C(F)(F)F)cc4)CC3)c2)CC1	1.00
CN1CCC2(CC1)CCN(c1ccc(C(F)(F)F)c(CN3CCN(c4ccc(C(F)(F)F)cc4)CC3)c1)C2	0.36
CN(C)CCN(C)c1ccc(C(F)(F)F)c(CN2CCN(c3ccc(Cl)cc3)CC2)c1	1.35
CN1CCC2(CC1)CCN(c1ccnc(CN3CCN(c4ccc(C(F)(F)F)cc4)CC3)c1)C2	1.48

Lookup: Return log10 CC50 at 48 h (reported value) for this molecule: "CN(C)CCN(C)c1ccc(C(F)(F)F)c(CN2CCN(c3ccc(C(F)(F)F)cc3)CC2)c1"
Found: 1.17

Lookup: Return log10 CC50 at 48 h (reported value) for this molecule: "CN(C)CCN(C)c1ccc(C#N)c(CN2CCN(c3ccc(Cl)cc3)CC2)c1"
Found: 1.30
